Recorded values, source PubChem BioAssay AID1963970.

test system: 931267-113-T-J1-PDC multicell spheroid viability; assay: Anticancer human tumor 931267-113-T-J1-PDC patient-derived colon adenocarcinoma cell line growth inhibition [PI3K]; details: curve of first compound; second compound 3.16 µM;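 also: viability read 7 days after compound addition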
Recorded Metric: IC50 (µM)

C[C@@H](NC(=O)c1ncnc(N)c1Cl)c1ncc(C(=O)Nc2cc(C(F)(F)F)c(Cl)cn2)s1 + Cc1nc(NC(=O)N2CCCC2C(N)=O)sc1-c1ccnc(C(C)(C)C(F)(F)F)c1: 5.35

I. CC(C)n1nc(-c2ccc3oc(N)nc3c2)c2c(N)ncnc21 + Cc1nc(NC(=O)N2CCCC2C(N)=O)sc1-c1ccnc(C(C)(C)C(F)(F)F)c1
II. CC1(C)CCC(Nc2ncc(C(F)(F)F)c(-c3c[nH]c4c(P(C)(C)=O)c(C#N)ccc34)n2)CN1 (stereo unspecified) + Cc1nc(NC(=O)N2CCCC2C(N)=O)sc1-c1ccnc(C(C)(C)C(F)(F)F)c1
Request: Of I and II , which shows the smaller IC50 value? Mark your selection by writing its label.
Response: I
(I: 0.0249 µM, II: 9.36 µM)
